Source: patent US20240391948A1

tested on: U937 cells (human monocytic cell line); experiment: BzATP-induced IL-1β secretion inhibition in PMA-differentiated U937 cells; type: cell-based; conditions: U-937, U937 cells differentiated with PMA, read-out: IL-1β production inhibition grade (IC50)
Entries annotated with measured IC50

Some compounds with recorded IC50:
structure	result-value
C[C@H](CCC(=O)N(CCS(=O)(=O)O)Cc1ccccc1)[C@H]1CC[C@H]2[C@@H]3CC[C@@H]4CC(=O)CC[C@]4(C)[C@H]3CC[C@]12C	≥ 200 nM
CC[C@H]1[C@@H](O)[C@@H]2[C@H](CC[C@]3(C)[C@@H]([C@H](C)CCC(=O)N4CC[C@H](S(=O)(=O)O)C4)CC[C@@H]23)[C@@]2(C)CC[C@@H](O)C[C@@H]12	< 50 nM
CC(C)N(CCS(=O)(=O)O)C(=O)CC[C@@H](C)[C@H]1CC[C@H]2[C@@H]3CC[C@@H]4C[C@H](O)CC[C@]4(C)[C@H]3C[C@H](O)[C@]12C	50 to 100 nM
CCN(CC)CCNC(=O)CC[C@@H](C)[C@H]1CC[C@H]2[C@@H]3CC[C@@H]4C[C@H](O)CC[C@]4(C)[C@H]3C[C@H](O)[C@]12C	< 50 nM

Entry under test: `CC(C)C[C@@H](CS(=O)(=O)O)NC(=O)CC[C@@H](C)[C@H]1CC[C@H]2[C@@H]3CC[C@@H]4CC(=O)CC[C@]4(C)[C@H]3CC[C@]12C` . Its IC50 was ≥ 200 nM
